# assay-name: phase I two-part drug-drug interaction study, plasma pharmacokinetics (Example 1)
# Assay type: in vivo, human
# condition-parameters: male, human, plasma, oral, 200 mg, 200 mg belumosudil single dose alone; read-out: AUC0-24, geometric mean (geometric CV %)
# Experimental: The secondary objective was to provide additional information on the safety and tolerability of this dose regimen in healthy males. This was a single center, non-randomized, DDI study in 35 (Part 1) and 38 (Part 2) healthy males. […] For each comparison, PK parameters were natural log transformed and analyzed using mixed effect modeling with treatment included as a fixed effect and subject as a random effect. Adjusted geometric mean ratios (GMRs) and corresponding 90% CIs were calculated.
measured-attribute: AUC from 0 to 24 h

Dear colleague, I am looking for the recorded AUC from 0 to 24 h of the following compound: CC(C)NC(=O)COc1cccc(-c2nc(Nc3ccc4[nH]ncc4c3)c3ccccc3n2)c1 8430 ng·h/mL

Where these numbers come from: patent US20240350493A1
